The reported numbers originate from the supplement of paper PMC10307832.

Catalogue of relative viability readings, one per entry.
# Tested on: NCI-H1648
# TEST NAME: relative viability (nuclei count vs DMSO), 5 days (fraction); higher = more cells survive
# STUDY CONDITIONS: first compound 0.03162 µM
# output: bare number, no unit

Completed entries (count: 3):
MOLECULE	TARGET OF ASSAY	NUMERIC RESULT
CCN(CC)CCCCNc1ncc2cc(-c3cc(OC)cc(OC)c3)c(NC(=O)NC(C)(C)C)nc2n1 + COc1cccc2cc(-c3nc([C@H]4CC[C@H](C(=O)O)CC4)n4ncnc(N)c34)[nH]c12 [OSI-027] (partner 0.5 µM)	NCI-H1648	0.228
O=c1cc(N2CCOCC2)oc2c(-c3cccc4c3sc3ccccc34)cccc12 + Nc1nc2[nH]cc(CCc3ccc(C(=O)N[C@@H](CCC(=O)O)C(=O)O)cc3)c2c(=O)[nH]1 [Pemetrexed] (partner 0.2 µM)	NCI-H1648	0.681
O=c1cc(N2CCOCC2)oc2c(-c3cccc4c3sc3ccccc34)cccc12 + NC(=O)Nc1cc(-c2cccc(F)c2)sc1C(=O)N[C@H]1CCCNC1 [AZD7762] (partner 0.2 µM)	NCI-H1648	0.889

Attention now shifts to the item below.
**Query** Missing value: relative viability, NCI-H1648, entry O=c1cc(N2CCOCC2)oc2c(-c3cccc4c3sc3ccccc34)cccc12 + CC(=O)c1c(C)c2cnc(Nc3ccc(N4CCNCC4)cn3)nc2n(C2CCCC2)c1=O [Palbociclib] (partner 0.5 µM) . Fill in?
**Result** 0.261

###

# Test system: BEN
# TEST NAME: relative viability (nuclei count vs DMSO), 5 days (fraction); higher = more cells survive
# STUDY CONDITIONS: first compound 0.01 µM
Measured relative viability, listed per entry for reference.
A bare number is all that is needed in reply.

Worked examples follow.
COMPOUND	NUMERIC RESULT
CCN(CC)CCCCNc1ncc2cc(-c3cc(OC)cc(OC)c3)c(NC(=O)NC(C)(C)C)nc2n1 + COc1cc2c(Oc3ccc(NC(=O)C4(C(=O)Nc5ccc(F)cc5)CC4)cc3F)ccnc2cc1OCCCN1CCOCC1 [Foretinib] (partner 0.25 µM)	0.597
CCN(CC)CCCCNc1ncc2cc(-c3cc(OC)cc(OC)c3)c(NC(=O)NC(C)(C)C)nc2n1 + CCNC(=O)c1noc(-c2cc(C(C)C)c(O)cc2O)c1-c1ccc(CN2CCOCC2)cc1 [Luminespib] (partner 0.01 µM)	0.249
CCN(CC)CCCCNc1ncc2cc(-c3cc(OC)cc(OC)c3)c(NC(=O)NC(C)(C)C)nc2n1 + CC(=O)Nc1cccc(-n2c(=O)n(C3CC3)c(=O)c3c(Nc4ccc(I)cc4F)n(C)c(=O)c(C)c32)c1 [Trametinib] (partner 0.02 µM)	1.15
O=c1cc(N2CCOCC2)oc2c(-c3cccc4c3sc3ccccc34)cccc12 + NC(=O)Nc1cc(-c2cccc(F)c2)sc1C(=O)N[C@H]1CCCNC1 [AZD7762] (partner 0.2 µM)	0.576
O=c1cc(N2CCOCC2)oc2c(-c3cccc4c3sc3ccccc34)cccc12 + Cc1nc(NC(=O)N2CCC[C@H]2C(N)=O)sc1-c1ccnc(C(C)(C)C(F)(F)F)c1 [Alpelisib] (partner 2 µM)	0.946
O=c1cc(N2CCOCC2)oc2c(-c3cccc4c3sc3ccccc34)cccc12 + N=C(N)NC(=N)NCCc1ccccc1 [Phenformin] (partner 250 µM)	0.241

Shift focus to the following entry.
**Query** Quick check: relative viability of CCN(CC)CCCCNc1ncc2cc(-c3cc(OC)cc(OC)c3)c(NC(=O)NC(C)(C)C)nc2n1 + Cc1nc(Nc2ncc(C(=O)Nc3c(C)cccc3Cl)s2)cc(N2CCN(CCO)CC2)n1 [Dasatinib] (partner 0.075 µM) ?
**Result** 0.298

###

# Test system: NCI-H1666
# TEST NAME: relative viability (nuclei count vs DMSO), 5 days (fraction); higher = more cells survive
# STUDY CONDITIONS: first compound 0.8 µM
PARAMETER: relative viability
No unit in the answer, only the number.

Reference set (4 entries):
COMPOUND	relative viability
O=c1cc(-c2cccc3c2Sc2ccccc2S3)oc(N2CCOCC2)c1 + Cc1nc(NC(=O)N2CCC[C@H]2C(N)=O)sc1-c1ccnc(C(C)(C)C(F)(F)F)c1 [Alpelisib] (partner 2 µM)	0.82
COc1nc(C)cnc1NS(=O)(=O)c1cccnc1-c1ccc(-c2nnco2)cc1 [Zibotentan] + CCNC(=O)c1noc(-c2cc(C(C)C)c(O)cc2O)c1-c1ccc(CN2CCOCC2)cc1 [Luminespib] (partner 0.01 µM)	1.02
COc1nc(C)cnc1NS(=O)(=O)c1cccnc1-c1ccc(-c2nnco2)cc1 [Zibotentan] + Cc1cc(Nc2cc(N3CCN(C)CC3)nc(Sc3ccc(NC(=O)C4CC4)cc3)n2)n[nH]1 [Tozasertib] (partner 0.1 µM)	0.784
COc1nc(C)cnc1NS(=O)(=O)c1cccnc1-c1ccc(-c2nnco2)cc1 [Zibotentan] + COc1cccc2cc(-c3nc([C@H]4CC[C@H](C(=O)O)CC4)n4ncnc(N)c34)[nH]c12 [OSI-027] (partner 0.5 µM)	0.814

Now consider a different compound.
**Query** Give the measured relative viability of COc1nc(C)cnc1NS(=O)(=O)c1cccnc1-c1ccc(-c2nnco2)cc1 [Zibotentan] + O=C(CCCCCCC(=O)Nc1ccccc1)NO [Vorinostat] (partner 1 µM) .
**Result** 1.04

###

# System: NCI-H322M
# TEST NAME: relative viability (nuclei count vs DMSO), 5 days (fraction); higher = more cells survive
# STUDY CONDITIONS: first compound 1 µM
PARAMETER: relative viability

The cases that follow already have their relative viability on record.
COMPOUND	relative viability
O=c1cc(N2CCOCC2)oc2c(-c3cccc4c3sc3ccccc34)cccc12 + CS(=O)(=O)N1CCN(Cc2cc3nc(-c4cccc5[nH]ncc45)nc(N4CCOCC4)c3s2)CC1 [Pictilisib] (partner 1 µM)	0.507
CCN(CC)CCCCNc1ncc2cc(-c3cc(OC)cc(OC)c3)c(NC(=O)NC(C)(C)C)nc2n1 + CS(=O)(=O)CCNCc1ccc(-c2ccc3ncnc(Nc4ccc(OCc5cccc(F)c5)c(Cl)c4)c3c2)o1 [Lapatinib] (partner 2 µM)	0.528
O=c1cc(N2CCOCC2)oc2c(-c3cccc4c3sc3ccccc34)cccc12 + O=C(c1cc(Cc2n[nH]c(=O)c3ccccc23)ccc1F)N1CCN(C(=O)C2CC2)CC1 [Olaparib] (partner 8 µM)	0.725
O=c1cc(N2CCOCC2)oc2c(-c3cccc4c3sc3ccccc34)cccc12 + Nc1ncn([C@H]2C[C@H](O)[C@@H](CO)O2)c(=O)n1 [Decitabine] (partner 2 µM)	0.751

// next entry
**Query** Which relative viability value is on record for CCN(CC)CCCCNc1ncc2cc(-c3cc(OC)cc(OC)c3)c(NC(=O)NC(C)(C)C)nc2n1 + COc1cc2c(Oc3ccc(NC(=O)C4(C(=O)Nc5ccc(F)cc5)CC4)cc3F)ccnc2cc1OCCCN1CCOCC1 [Foretinib] (partner 0.25 µM) ?
**Result** 0.966

###

Reported relative viability values are given for each entry in this list.
# Tested on: HOP-62
# TEST NAME: relative viability (nuclei count vs DMSO), 5 days (fraction); higher = more cells survive
# STUDY CONDITIONS: first compound 0.6325 µM

Reference set, count: 2
COMPOUND	relative viability
COCC1(CO)C(=O)C2CCN1CC2 (stereo not drawn) [PRIMA-1MET] + C[C@]1(O)C[C@@H](c2nc(-c3ccc4ccc(-c5ccccc5)nc4c3)c3c(N)nccn32)C1 [Linsitinib] (partner 1 µM)	0.976
COCC1(CO)C(=O)C2CCN1CC2 (stereo not drawn) [PRIMA-1MET] + CC(C)C[C@H](NC(=O)[C@H](Cc1ccccc1)NC(=O)c1cnccn1)B(O)O [Bortezomib] (partner 0.002 µM)	0.648

**Query** What relative viability appears in the records for this compound with HOP-62? COCC1(CO)C(=O)C2CCN1CC2 (stereo not drawn) [PRIMA-1MET] + COc1cccc2cc(-c3nc([C@H]4CC[C@H](C(=O)O)CC4)n4ncnc(N)c34)[nH]c12 [OSI-027] (partner 0.5 µM)
**Result** 0.808

###

# Test system: LXF-289
# TEST NAME: relative viability (nuclei count vs DMSO), 5 days (fraction); higher = more cells survive
# STUDY CONDITIONS: first compound 6.325 µM
# Lookup of reported relative viability keyed by entry
Enter a number only.

MOLECULE	relative viability
COCC1(CO)C(=O)C2CCN1CC2 (stereo not drawn) [PRIMA-1MET] + Nc1nc2[nH]cc(CCc3ccc(C(=O)N[C@@H](CCC(=O)O)C(=O)O)cc3)c2c(=O)[nH]1 [Pemetrexed] (partner 0.2 µM)	0.954

**Query** Can you look up the measured relative viability of COCC1(CO)C(=O)C2CCN1CC2 (stereo not drawn) [PRIMA-1MET] + CC(=O)Nc1cccc(-n2c(=O)n(C3CC3)c(=O)c3c(Nc4ccc(I)cc4F)n(C)c(=O)c(C)c32)c1 [Trametinib] (partner 0.02 µM) for me?
**Result** 0.651

**Query** Also need COCC1(CO)C(=O)C2CCN1CC2 (stereo not drawn) [PRIMA-1MET] + C[C@]1(O)C[C@@H](c2nc(-c3ccc4ccc(-c5ccccc5)nc4c3)c3c(N)nccn32)C1 [Linsitinib] (partner 1 µM) , thanks.
**Result** 0.999
